Target or system Serine/threonine-protein kinase B-raf (Homo sapiens): recorded pIC50 listed per item.
pIC50: −log10 of the molar value.
Quantity Kind: pIC50

Past entries and their recorded results:
O=C1C(Sc2ncn[nH]2)=C/C(=N\S(=O)(=O)c2cccs2)c2ccccc21: 6.64
COc1ccc(C(c2ccc3cccnc3c2O)N2CCOCC2)cc1 (stereo unspecified): 5.40

[A] Oc1c(C(Nc2ccccn2)c2ccco2)cc(Cl)c2cccnc12 (stereo unspecified)
[B] O=S(=O)(Nc1ccc(O)c2ccccc12)c1cccs1
QUERY: API: POST /compare with A and B ; response names the item with higher pIC50. Give the chosen item's label as your response.
RESULT: A
(A: 6.10, B: 5.05)

[P] O=S(=O)(Nc1cc(Sc2nnc[nH]2)c(O)c2ccccc12)c1ccc(-c2ccccc2)cc1
[Q] O=C1CCC(=O)N1c1ccc(F)c(S(=O)(=O)Nc2cc(Sc3ncn[nH]3)c(O)c3ccccc23)c1F
QUERY: // pick larger pIC50 from pair: P vs Q State the label of the item chosen.
RESULT: P
(P: 6.66, Q: 6.17)
